Assignment: determine reported binding signal for the given sequences.
- Target System: GST-ATAF1 NAC domain (Arabidopsis thaliana, UniProt Q39013 7-158)
- Sequence: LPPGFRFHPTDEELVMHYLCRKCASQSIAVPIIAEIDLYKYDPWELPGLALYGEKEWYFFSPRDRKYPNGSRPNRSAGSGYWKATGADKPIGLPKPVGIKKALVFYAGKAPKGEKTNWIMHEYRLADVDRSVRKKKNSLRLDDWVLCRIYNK
- Measurement Notes: universal protein binding microarray (PBM); high values mean tight binding
- Protocol Conditions: protein: recombinant; tags: GST; chain copies: 2; dsDNA, one strand shown

// solved cases for binding signal follow
Residue Sequence	binding signal
ATTGAGTA	0.251 E-score
GTACGGCA	0.385 E-score
GTAACGTA	0.322 E-score
GGCGTGTA	0.163 E-score
CTACGCAA	0.267 E-score

Provide each entry's binding signal from the list below.
1. ATAACGTA
2. CACGGAAG
3. ATTGACCA

Output:
0.289 E-score
0.343 E-score
0.107 E-score

Look up binding signal for the entries below, preserving their order.
1. GTTAAGTA
2. ACGCAAAT
3. GTTGGTCA
4. GTAGTCAA
5. GCACGTCA
6. CTAGTCAA
7. GTCAATAA

Output:
1: 0.218 E-score; 2: 0.262 E-score; 3: 0.131 E-score; 4: 0.191 E-score; 5: 0.317 E-score; 6: 0.148 E-score; 7: 0.135 E-score

I would be grateful if you could provide binding signal for each of the following entries.
1. ACGTCAAA
2. CACGCCAC
3. CTTACCCC
4. GTAGCGTA
5. ACGCATCC
6. ACGGAAGC
7. GTCAAATA

Output:
1. 0.176 E-score
2. 0.293 E-score
3. 0.0855 E-score
4. 0.288 E-score
5. 0.195 E-score
6. 0.289 E-score
7. 0.141 E-score

---

- Target System: GST-ANAC019 NAC domain (Arabidopsis thaliana, UniProt Q9C932 14-162)
- Sequence: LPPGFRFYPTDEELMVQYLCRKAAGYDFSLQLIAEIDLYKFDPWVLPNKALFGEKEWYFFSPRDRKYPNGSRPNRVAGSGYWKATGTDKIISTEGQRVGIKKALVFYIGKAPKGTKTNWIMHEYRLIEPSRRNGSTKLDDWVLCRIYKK
- Measurement Notes: universal protein binding microarray (PBM); high values mean tight binding
- Protocol Conditions: protein: recombinant; tags: GST; chain copies: 2; dsDNA, one strand shown
Record yes whenever binding signal is at 0.2 E-score or higher; record no when lower.

Task: Please indicate if the recorded binding signal for CTTGCTTA meets or exceeds 0.2 E-score.
Output: no

---

- Target System: GST-ANAC019 NAC domain (Arabidopsis thaliana, UniProt Q9C932 14-162)
- Sequence: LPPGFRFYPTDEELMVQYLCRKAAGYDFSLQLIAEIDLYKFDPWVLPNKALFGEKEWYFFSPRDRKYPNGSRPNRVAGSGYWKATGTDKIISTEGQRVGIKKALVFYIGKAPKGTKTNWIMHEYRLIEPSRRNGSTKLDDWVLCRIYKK
- Measurement Notes: universal protein binding microarray (PBM); high values mean tight binding
- Protocol Conditions: protein: recombinant; tags: GST; chain copies: 2; dsDNA, one strand shown
Readout Name: binding signal
Param answer (str): number followed by unit.

Residue Sequence	binding signal
CTAGTCAA	0.0699 E-score

Give binding signal for each listed item.
1. ACACGACT
2. ACGCAACC
3. TAGGGAAA
4. GCAAGGAA
5. ACGTAAAG
6. GTCAATCA
7. GGATTGAC

Output:
["0.411 E-score", "0.455 E-score", "0.0861 E-score", "0.185 E-score", "0.367 E-score", "0.0668 E-score", "0.102 E-score"]

---

- Target System: GST-ANAC092(1-285) full length (Arabidopsis thaliana, UniProt Q9FKA0 1-285)
- Sequence: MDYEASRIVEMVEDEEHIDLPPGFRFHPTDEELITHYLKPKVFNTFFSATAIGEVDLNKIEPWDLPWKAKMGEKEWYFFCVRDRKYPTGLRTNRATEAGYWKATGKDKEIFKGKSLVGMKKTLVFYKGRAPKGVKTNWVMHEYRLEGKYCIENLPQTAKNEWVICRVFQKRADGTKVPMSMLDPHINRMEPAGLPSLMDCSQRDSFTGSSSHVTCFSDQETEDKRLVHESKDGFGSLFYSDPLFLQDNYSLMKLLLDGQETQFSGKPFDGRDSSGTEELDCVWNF
- Measurement Notes: universal protein binding microarray (PBM); high values mean tight binding
- Protocol Conditions: protein: recombinant; tags: GST; chain copies: 2; dsDNA, one strand shown
Please respond with reported binding signal for every item in the list.
Answers are plain numbers, in E-score.

Some solved entries appear below for comparison.
Residue Sequence	Value Unit	Measured Result
ACGGAACT	E-score	0.277
AGCTTTCC	E-score	0.133
TGGAGTAA	E-score	0.342

Value sought for every listed sequence: binding signal.
1. ACGTATCT
2. ACGGCAGT

Output:
[0.306, 0.263]

// input: 4 sequences below; output: binding signal for each
1. AAGTCAGA
2. ATGCGTGC
3. AATTGCGT
4. ACTTAACC

Output:
0.14
0.452
0.46
0.186

// batch mode: one binding signal value per listed entry
1. TTACGTAA
2. GGCGTGTA
3. ACGTCAAA

Output:
0.469
0.439
0.372

---

- Target System: GST-ANAC092(1-285) full length (Arabidopsis thaliana, UniProt Q9FKA0 1-285)
- Sequence: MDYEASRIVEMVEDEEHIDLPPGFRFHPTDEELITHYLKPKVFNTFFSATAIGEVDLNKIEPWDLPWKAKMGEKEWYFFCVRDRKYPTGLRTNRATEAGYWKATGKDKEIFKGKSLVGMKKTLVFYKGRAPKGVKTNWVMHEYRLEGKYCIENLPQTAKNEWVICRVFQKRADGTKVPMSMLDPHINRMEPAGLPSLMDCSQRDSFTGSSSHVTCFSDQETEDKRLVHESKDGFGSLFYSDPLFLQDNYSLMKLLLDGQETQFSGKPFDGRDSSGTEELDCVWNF
- Measurement Notes: universal protein binding microarray (PBM); high values mean tight binding
- Protocol Conditions: protein: recombinant; tags: GST; chain copies: 2; dsDNA, one strand shown
Readout Name: binding signal (E-score)
One number for each entry, in E-score.

Residue Sequence	Measured Result
ACGTAATA	0.434
CAAGCAAG	0.419

Quick request: binding signal for each listed item, please.
1. ATAAGTCA
2. TAAGTCAA
3. AGACGTGA
4. GGCGTAAC
5. ACGCAACT
6. CGAAGGAA
7. GTCACGCA

Output:
1. 0.101
2. 0.158
3. 0.272
4. 0.277
5. 0.472
6. 0.0784
7. 0.4

Please give binding signal, item by item, for the list that follows.
1. CACGTTAC
2. AAGTTACC
3. AAAGGTCA

Output:
[0.476, 0.417, 0.0795]

Count: 4. Required value per item: binding signal.
1. TGCGTACA
2. ACGTAAAG
3. AATTCCGT
4. AGACGCAA

Output:
0.437
0.421
0.247
0.462

Please report binding signal for every entry that follows.
1. TGACTTAA
2. ATACGTTA
3. GAAACGTA
4. AATAGTCA

Output:
[0.102, 0.451, 0.411, 0.113]

Kindly give each listed record's binding signal.
1. TCACGTAA
2. TAGAGTAA

Output:
[0.445, 0.263]

---

For each of the sequences below, state its binding signal.
- Target System: GST-NTL6(1-168) (Arabidopsis thaliana, UniProt Q9SCK6 1-168)
- Sequence (Q9SCK6 1-168): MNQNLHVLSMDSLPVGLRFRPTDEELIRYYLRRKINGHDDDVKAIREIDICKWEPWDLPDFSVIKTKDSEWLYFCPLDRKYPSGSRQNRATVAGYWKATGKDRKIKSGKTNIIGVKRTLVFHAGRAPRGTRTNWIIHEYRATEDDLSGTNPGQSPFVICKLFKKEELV
- Measurement Notes: universal protein binding microarray (PBM); high values mean tight binding
- Protocol Conditions: protein: recombinant; tags: GST; chain copies: 2; dsDNA, one strand shown
Give bare numbers, in E-score.

These solved cases illustrate the format of a correct answer.
Residue Sequence	Value Unit	binding signal
AAACGTAA	E-score	0.216
TGGAGTAA	E-score	0.105
TGACCTAA	E-score	0.0566

The following sequences each have a reported value; give each one's binding signal.
1. AGAGGAAA
2. AGGGGAAA
3. AAGCAACA
4. TATCGTAA
5. AAGGAATG
6. AGGGAAAA
7. TACCTTAA

Output:
[0.126, 0.14, 0.333, 0.146, 0.422, 0.201, 0.42]

---

- Target System: GST-ANAC019 NAC domain (Arabidopsis thaliana, UniProt Q9C932 14-162)
- Sequence: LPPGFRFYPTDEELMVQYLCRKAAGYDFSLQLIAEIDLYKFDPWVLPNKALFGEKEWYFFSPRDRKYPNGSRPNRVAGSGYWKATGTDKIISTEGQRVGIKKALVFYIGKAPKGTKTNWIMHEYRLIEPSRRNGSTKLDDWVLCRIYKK
- Measurement Notes: universal protein binding microarray (PBM); transcription factors of Arabidopsis thaliana; high values mean tight binding
- Protocol Conditions: protein: recombinant; tags: GST; chain copies: 2; dsDNA, one strand shown
So basically, the class depends on measured binding signal, and the ranges are bottom: < 0.1 E-score; middle: ≥ 0.1 E-score and < 0.2 E-score; top: ≥ 0.2 E-score

Residue Sequence	Class Name
CACACGCA	top

Task: Band assignment needed for TGACTAAA please.
Output: bottom
